The measured values listed here are drawn from ChEMBL document CHEMBL4837268.

- Experimental target: Protein cereblon/Zinc finger protein Aiolos (Homo sapiens) (UniProt Q96SW2+Q9UKT9)
- Sequence (Q96SW2 whole entry, looked up): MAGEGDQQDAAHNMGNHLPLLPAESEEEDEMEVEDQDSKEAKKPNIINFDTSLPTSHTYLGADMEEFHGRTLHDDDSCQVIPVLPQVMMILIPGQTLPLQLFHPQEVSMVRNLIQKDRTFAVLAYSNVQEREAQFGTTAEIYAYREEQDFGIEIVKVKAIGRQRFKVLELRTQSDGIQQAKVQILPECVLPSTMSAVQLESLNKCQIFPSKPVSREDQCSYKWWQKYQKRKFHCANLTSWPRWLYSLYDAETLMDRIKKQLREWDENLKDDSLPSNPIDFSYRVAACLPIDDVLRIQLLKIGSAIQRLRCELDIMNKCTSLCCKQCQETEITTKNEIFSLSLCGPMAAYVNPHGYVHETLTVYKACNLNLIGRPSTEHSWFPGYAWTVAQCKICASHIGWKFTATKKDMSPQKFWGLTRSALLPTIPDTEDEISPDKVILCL
- Sequence (Q9UKT9 whole entry, looked up): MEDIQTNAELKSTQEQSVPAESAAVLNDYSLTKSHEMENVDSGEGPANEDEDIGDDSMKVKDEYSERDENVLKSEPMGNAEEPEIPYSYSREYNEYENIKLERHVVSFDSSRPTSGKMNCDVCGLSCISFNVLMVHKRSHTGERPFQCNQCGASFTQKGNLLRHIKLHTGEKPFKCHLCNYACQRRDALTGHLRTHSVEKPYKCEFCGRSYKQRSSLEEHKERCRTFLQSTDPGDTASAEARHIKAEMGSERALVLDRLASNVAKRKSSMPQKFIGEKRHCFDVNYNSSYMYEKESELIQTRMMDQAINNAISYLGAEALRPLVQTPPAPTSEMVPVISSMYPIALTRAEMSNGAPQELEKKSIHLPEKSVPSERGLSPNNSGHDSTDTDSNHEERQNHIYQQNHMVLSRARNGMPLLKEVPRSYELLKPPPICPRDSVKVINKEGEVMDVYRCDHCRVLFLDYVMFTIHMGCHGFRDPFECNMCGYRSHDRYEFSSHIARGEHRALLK
- Assay: Protac activity at CRBN/IKZF3 in human MM1.S cells assessed as protein levels at 1 uM measured after 72 hrs by Western blot analysis relative to control
- Format: cell-based
Below, each entry is listed with its recorded Activity.

CC(=O)c1c(C)c2cnc(Nc3ccc(N4CCN(CC(=O)NCCOCCOCCOCC(=O)NCc5cccc6c5C(=O)N(C5CCC(=O)NC5=O)C6=O)CC4)cn3)nc2n(C2CCCC2)c1=O (centres undefined) :: > 95%
CC(=O)c1c(C)c2cnc(Nc3ccc(N4CCN(CC(=O)NCCOCCOCCOCC(=O)Nc5cccc6c5CN(C5CCC(=O)NC5=O)C6=O)CC4)cn3)nc2n(C2CCCC2)c1=O (centres undefined) :: > 95%
CC(=O)c1c(C)c2cnc(Nc3ccc(N4CCN(CC(=O)NCCOCCOCCOCCNc5cccc6c5C(=O)N(C5CCC(=O)NC5=O)C6=O)CC4)cn3)nc2n(C2CCCC2)c1=O (centres undefined) :: 2%

Request: Requested read-out: Activity. Entry: CC(=O)c1c(C)c2cnc(Nc3ccc(N4CCN(CC(=O)NCCOCCOCCOCCNC(=O)COc5cccc6c5C(=O)N(C5CCC(=O)NC5=O)C6=O)CC4)cn3)nc2n(C2CCCC2)c1=O (centres undefined)
Response: > 95%

###

- Assay: Stability in human plasma assessed as half life measured up tp 120 mins by HPLC analysis
- Type: ADME, cell-free
Measured half-life values are reported for all entries that follow.

O=C1CCC(N2Cc3cc(OCCOCCOCCOCc4ccccc4)ccc3C2=O)C(=O)N1 (stereo not drawn) :: > 2 h

Request: // half-life lookup, key: O=C1CCC(N2Cc3c(NCCOCCOCCOCc4ccccc4)cccc3C2=O)C(=O)N1 (stereo not drawn)
Response: > 2 h

Request: Lookup O=C(COCCOCCOCc1ccccc1)NCc1cccc2c1C(=O)N(C1CCC(=O)NC1=O)C2=O (stereo not drawn)
Response: > 2 h

Request: Follow-up item: O=C1CCC(N2C(=O)c3ccc(OCCOCCOCCOCc4ccccc4)cc3C2=O)C(=O)N1 (stereo not drawn)
Response: > 2 h

Request: Same again, this time with O=C1CCC(N2C(=O)c3cccc(NC(=O)COCCOCCOCc4ccccc4)c3C2=O)C(=O)N1 (stereo not drawn)
Response: 1.97 h

Request: Then what about the molecule O=C(CNc1cccc2c1C(=O)N(C1CCC(=O)NC1=O)C2=O)NCCOCCOCCOCc1ccccc1 (stereo not drawn) ?
Response: > 2 h

Request: Similarly, O=C1CCC(N2Cc3c(NC(=O)COCCOCCOCc4ccccc4)cccc3C2=O)C(=O)N1 (stereo not drawn) ?
Response: 1.45 h

Request: Queued: O=C1CCC(N2C(=O)c3cccc(NCCOCCOCCOCc4ccccc4)c3C2=O)C(=O)N1 (stereo not drawn)
Response: > 2 h

###

- Assay: Stability of the compound in acetonitrile/buffer mixture at pH 7.4 assessed as parent compound remaining measured after 24 hrs by HPLC analysis
- Type: physicochemical
- Condition info: read-out: Stabilty
Recorded endpoint: remaining at 24 h (%)

O=C1CCC(N2C(=O)c3ccccc3C2=O)C(=O)N1CCOCCOCCOCc1ccccc1 (centres undefined) :: 19
O=C1CCC(N2C(=O)c3ccc(NCCOCCOCCOCc4ccccc4)cc3C2=O)C(=O)N1 (centres undefined) :: 70
O=C1CCC(N2Cc3cc(NCCOCCOCCOCc4ccccc4)ccc3C2=O)C(=O)N1 (centres undefined) :: 79
O=C(CNc1cccc2c1C(=O)N(C1CCC(=O)NC1=O)C2=O)NCCOCCOCCOCc1ccccc1 (centres undefined) :: 68
O=C1c2cccc(OCCOCCOCCOCc3ccccc3)c2C(=O)N1C1CCCCC1 :: 90
O=C1CCC(N2Cc3c(OCCOCCOCCOCc4ccccc4)cccc3C2=O)C(=O)N1 (centres undefined) :: 78

A. O=C1CCC(N2C(=O)c3cccc(NCCOCCOCCOCc4ccccc4)c3C2=O)C(=O)N1 (centres undefined)
B. O=C(COCCOCCOCc1ccccc1)NCc1cccc2c1C(=O)N(C1CCC(=O)NC1=O)C2=O (centres undefined)
Request: Param metric = remaining at 24 h; output whichever of A , B has the minimum value. API: response body contains the label of the selected item.
Response: B

I. O=C1NCCCC1N1C(=O)c2cccc(OCCOCCOCCOCc3ccccc3)c2C1=O (centres undefined)
II. O=C(COc1ccc2c(c1)C(=O)N(C1CCC(=O)NC1=O)C2=O)NCCOCCOCCOCc1ccccc1 (centres undefined)
Request: Endpoint returns whichever of I and II has the numerically higher remaining at 24 h. Please respond with the label that marks your chosen entry.
Response: I
(I: 99%, II: 15%)

I. O=C1CCC(N2C(=O)c3cccc(NC(=O)COCCOCCOCc4ccccc4)c3C2=O)C(=O)N1 (centres undefined)
II. O=C(CNc1ccc2c(c1)C(=O)N(C1CCC(=O)NC1=O)C2=O)NCCOCCOCCOCc1ccccc1 (centres undefined)
III. O=C1CCC(N2C(=O)c3cccc(C#CCOCCOCCOCc4ccccc4)c3C2=O)C(=O)N1 (centres undefined)
IV. O=C1CCC(N2C(=O)c3ccc(C(=O)NCCOCCOCCOCc4ccccc4)cc3C2=O)C(=O)N1 (centres undefined)
V. O=C1CCC(N2C(=O)c3cccc(C(=O)NCCOCCOCCOCc4ccccc4)c3C2=O)C(=O)N1 (centres undefined)
Request: Parameters: sort_field (remaining at 24 h), sort_dir (desc). Write out the labels following the order that was asked for.
Response: II, I, III, V, IV
(II: 56%, I: 15%, III: 6%, V: 3%, IV: 1%)

a. O=C(COCCOCCOCc1ccccc1)NCc1ccc2c(c1)C(=O)N(C1CCC(=O)NC1=O)C2=O (centres undefined)
b. O=C1CCC(N2Cc3cc(OCCOCCOCCOCc4ccccc4)ccc3C2=O)C(=O)N1 (centres undefined)
Request: Return label of the item with the larger remaining at 24 h. Candidates: a , b . Please respond with the label that marks your chosen entry.
Response: b
(b: 73%, a: 16%)

1. O=C(COc1cccc2c1C(=O)N(C1CCC(=O)NC1=O)C2=O)NCCOCCOCCOCc1ccccc1 (centres undefined)
2. O=C1CCC(N2C(=O)c3ccc(NC(=O)COCCOCCOCc4ccccc4)cc3C2=O)C(=O)N1 (centres undefined)
Request: Which shows the larger remaining at 24 h value: 1 or 2 ? I would appreciate it if you answered with the label of your choice.
Response: 1

###

- Experimental target: Protein cereblon/Cyclin-dependent kinase 4 (Homo sapiens) (UniProt P11802+Q96SW2)
- Sequence (P11802 2-303 limits assumed, one chain of several): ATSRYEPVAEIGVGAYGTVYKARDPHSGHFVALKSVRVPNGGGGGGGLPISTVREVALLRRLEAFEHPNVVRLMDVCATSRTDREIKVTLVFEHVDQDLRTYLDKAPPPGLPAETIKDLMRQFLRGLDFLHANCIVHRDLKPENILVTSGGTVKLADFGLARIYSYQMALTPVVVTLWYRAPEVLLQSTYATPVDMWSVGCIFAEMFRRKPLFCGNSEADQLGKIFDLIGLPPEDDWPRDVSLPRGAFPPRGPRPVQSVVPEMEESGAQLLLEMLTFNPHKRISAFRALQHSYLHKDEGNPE
- Assay: Protac activity at CRBN/CDK4 in human MM1.S cells assessed as protein levels at 1 uM measured after 72 hrs by Western blot analysis relative to control
- Type: cell-based
Recorded endpoint: Activity (%)

CC(=O)c1c(C)c2cnc(Nc3ccc(N4CCN(CC(=O)NCCOCCOCCOCC(=O)NCc5cccc6c5C(=O)N(C5CCC(=O)NC5=O)C6=O)CC4)cn3)nc2n(C2CCCC2)c1=O (centres undefined) :: 68

1. CC(=O)c1c(C)c2cnc(Nc3ccc(N4CCN(CC(=O)NCCOCCOCCOCCNc5cccc6c5C(=O)N(C5CCC(=O)NC5=O)C6=O)CC4)cn3)nc2n(C2CCCC2)c1=O (centres undefined)
2. CC(=O)c1c(C)c2cnc(Nc3ccc(N4CCN(CC(=O)NCCOCCOCCOCC(=O)Nc5cccc6c5CN(C5CCC(=O)NC5=O)C6=O)CC4)cn3)nc2n(C2CCCC2)c1=O (centres undefined)
Request: Of 1 and 2 , whose reported Activity is the larger number? // respond with label for picked entry
Response: 2
(2: 56%, 1: 26%)

###

- Assay: physchem
- Condition info: buffer, pH 7.4
- Description: Lipophilicity, logD of the compound at pH 7.4 by HPLC analysis
Recorded endpoint: logD

O=C(COCCOCCOCc1ccccc1)NCc1ccc2c(c1)C(=O)N(C1CCC(=O)NC1=O)C2=O (centres undefined) :: 1.8
O=C(COc1ccc2c(c1)C(=O)N(C1CCC(=O)NC1=O)C2=O)NCCOCCOCCOCc1ccccc1 (centres undefined) :: 2
O=C(COCCOCCOCc1ccccc1)NCc1cccc2c1C(=O)N(C1CCC(=O)NC1=O)C2=O (centres undefined) :: 2

P. O=C1CCC(N2C(=O)c3cccc(NCCOCCOCCOCc4ccccc4)c3C2=O)C(=O)N1 (centres undefined)
Q. O=C1CCC(N2C(=O)c3cccc(C(=O)NCCOCCOCCOCc4ccccc4)c3C2=O)C(=O)N1 (centres undefined)
Request: When the recorded logD values are compared, which is smaller: that of P or that of Q ? I would appreciate it if you answered with the label of your choice.
Response: Q
(Q: 1.9, P: 3.1)

a. O=C1CCC(N2Cc3c(NCCOCCOCCOCc4ccccc4)cccc3C2=O)C(=O)N1 (centres undefined)
b. O=C1CCC(N2Cc3c(NC(=O)COCCOCCOCc4ccccc4)cccc3C2=O)C(=O)N1 (centres undefined)
Request: // which entry reports the smaller logD, a or b ? Kindly give the label for the entry you pick.
Response: b
(b: 1.6, a: 2.4)
